MEASURED_ON: NRAS WT (Homo sapiens, UniProt P01111+P62937)
Construct: His6
Sequence (P01111 whole entry): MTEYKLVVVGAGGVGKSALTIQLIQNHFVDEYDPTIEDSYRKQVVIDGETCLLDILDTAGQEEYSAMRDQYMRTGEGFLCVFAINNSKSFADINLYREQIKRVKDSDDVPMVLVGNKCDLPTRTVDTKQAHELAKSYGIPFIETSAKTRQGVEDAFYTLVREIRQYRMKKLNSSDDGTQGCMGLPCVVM
Sequence (P62937 whole entry): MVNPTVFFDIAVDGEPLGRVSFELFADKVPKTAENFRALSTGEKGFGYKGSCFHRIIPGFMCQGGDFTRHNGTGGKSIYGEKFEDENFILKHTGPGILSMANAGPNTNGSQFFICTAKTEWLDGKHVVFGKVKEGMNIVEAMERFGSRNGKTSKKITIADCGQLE
EXPERIMENT_NOTES: Ras-Raf disruption/FRET/MOA assay, NRAS WT
Type: biochemical
RECORDED_CONDITIONS: NRAS WT; read-out: NRAS WT FRET data IC50
ENDPOINT_LABEL: IC50

compound=CCn1c(-c2cccnc2[C@H](C)OC)c2c3cc(ccc31)-c1cc(O)cc(c1)C[C@H](NC(=O)[C@H](C(C)C)N1CCCC3(CN(C(=O)[C@@H]4CN4)C3)C1=O)C(=O)N1CCC[C@H](N1)C(=O)OCC(C)(C)C2 result="10 to 100 nM"
compound="CCn1c(-c2cnccc2COC)c2c3cc(ccc31)-c1cc(O)cc(c1)C[C@H](NC(=O)[C@H](C(C)C)N(C)C(=O)CN(C)C(=O)[C@H]1CN1S(C)(=O)=O)C(=O)N1CCC[C@H](N1)C(=O)OCC(C)(C)C2 (some centres unmarked)" result="100 to 1000 nM"
compound=CCn1c(-c2cccnc2[C@H](C)OC)c2c3cc(ccc31)-c1csc(n1)C[C@H](NC(=O)[C@H](C(C)C)N(C)C(=O)N1C3CCC1CN(C(=O)[C@H]1CN1)C3)C(=O)N1CCC[C@H](N1)C(=O)OCC(C)(C)C2 result="100 to 1000 nM"
compound=CCn1c(-c2cccnc2[C@H](C)OC)c2c3cc(ccc31)-c1csc(n1)C[C@H](NC(=O)[C@H](C1CCCC1)N1CC[C@]3(CCN(C(=O)[C@H]4CN4)C3)C1=O)C(=O)N1CCC[C@H](N1)C(=O)OCC(C)(C)C2 result="1000 to 10000 nM"
compound=CCn1c(-c2cccnc2[C@H](C)OC)c2c3cc(ccc31)-c1cc(O)cc(c1)C[C@H](NC(=O)[C@H](C1CCCC1)N1CC[C@@]3(CCN(C(=O)[C@@H]4N[C@@H]4C4CC4)C3)C1=O)C(=O)N1CCC[C@H](N1)C(=O)OCC(C)(C)C2 result="100 to 1000 nM"
compound=CCn1c(-c2cccnc2[C@H](C)OC)c2c3cc(ccc31)-c1csc(n1)C[C@H](NC(=O)[C@H](C(C)C)N(C)C(=O)N1C3CCC1CN(C(=O)[C@@H]1CN1)C3)C(=O)N1CCC[C@H](N1)C(=O)OCC(C)(C)C2 result="100 to 1000 nM"
compound=CCn1c(-c2cccnc2[C@H](C)OC)c2c3cc(ccc31)-c1cc(cc(C(F)F)c1)C[C@H](NC(=O)[C@H](C1CCCC1)N1CC[C@]3(CCN(C(=O)[C@H]4CN4)C3)C1=O)C(=O)N1CCC[C@H](N1)C(=O)OCC(C)(C)C2 result="1000 to 10000 nM"
compound="CCn1c(-c2cccnc2[C@H](C)OC)c2c3cc(ccc31)-c1csc(n1)C[C@H](NC(=O)[C@H](C(C)C)N(C)C(=O)N1CCC[C@@H](N(C)C(=O)[C@H]3CN3)C1)C(=O)N1CCC[C@H](N1)C(=O)OCC(C)(C)C2 (atropisomer, axis not shown)" result="10 to 100 nM"

---

System: AsPC-1 (K-Ras G12D)
EXPERIMENT_NOTES: CellTiter-Glo cell viability assay, AsPC-1
Type: cell-based
RECORDED_CONDITIONS: Homo sapiens, ASPC1, 120 h, read-out: AsPC-1 Cell Viability IC50
ENDPOINT_LABEL: IC50

molecule=CCn1c(-c2cnccc2COC)c2c3cc(ccc31)-c1cc(O)cc(c1)C[C@H](NC(=O)[C@H](C(C)C)N(C)C(=O)CN(C)C(=O)[C@@H]1CN1C(C)=O)C(=O)N1CCC[C@H](N1)C(=O)OCC(C)(C)C2 endpoint_label=IC50 result="1 to 10 µM"
molecule="CCn1c(-c2cnccc2COC)c2c3cc(ccc31)-c1cc(O)cc(c1)C[C@H](NC(=O)[C@H](C(C)C)N(C)C(=O)CN(C)C(=O)[C@@H]1[C@H](C3CC3)N1[S@@+]([O-])C(C)(C)C)C(=O)N1CCC[C@H](N1)C(=O)OCC(C)(C)C2 (stereo partly drawn)" endpoint_label=IC50 result="1 to 10 µM"
molecule="CCn1c(-c2cnccc2COC)c2c3cc(ccc31)-c1cc(O)cc(c1)C[C@H](NC(=O)[C@H](C(C)C)N(C)C(=O)CN(C)C(=O)[C@@H]1CN1S(C)(=O)=O)C(=O)N1CCC[C@H](N1)C(=O)OCC(C)(C)C2 (stereo partly drawn)" endpoint_label=IC50 result="> 10 µM"
molecule="CCn1c(-c2cnccc2COC)c2c3cc(ccc31)-c1cc(O)cc(c1)C[C@H](NC(=O)[C@H](C(C)C)N(C)C(=O)CN(C)C(=O)C1CN1C(C)=O)C(=O)N1CCC[C@H](N1)C(=O)OCC(C)(C)C2 (stereo partly drawn)" endpoint_label=IC50 result="1 to 10 µM"
molecule="CCn1c(-c2cnccc2COC)c2c3cc(ccc31)-c1cc(O)cc(c1)C[C@H](NC(=O)[C@H](C(C)C)N(C)C(=O)CN(C)C(=O)[C@@H]1[C@H](C(=O)OC)N1[S@@+]([O-])C(C)(C)C)C(=O)N1CCC[C@H](N1)C(=O)OCC(C)(C)C2 (stereo partly drawn)" endpoint_label=IC50 result="> 10 µM"
molecule="CCn1c(-c2cnccc2COC)c2c3cc(ccc31)-c1cc(O)cc(c1)C[C@H](NC(=O)[C@H](C(C)C)N(C)C(=O)CN(C)C(=O)C1CN1S(C)(=O)=O)C(=O)N1CCC[C@H](N1)C(=O)OCC(C)(C)C2 (stereo partly drawn)" endpoint_label=IC50 result="1 to 10 µM"

---

// values below are reported pIC50
MEASURED_ON: NRAS Q61K (Homo sapiens, UniProt P01111+P62937, Q61K)
Construct: His6
Sequence (P01111 whole entry Q61K, one chain of several): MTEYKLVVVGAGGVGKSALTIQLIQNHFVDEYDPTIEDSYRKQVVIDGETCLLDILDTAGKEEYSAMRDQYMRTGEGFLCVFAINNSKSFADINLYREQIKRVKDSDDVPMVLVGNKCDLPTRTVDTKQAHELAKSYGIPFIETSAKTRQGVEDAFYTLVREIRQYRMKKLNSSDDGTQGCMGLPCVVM
EXPERIMENT_NOTES: Ras-Raf disruption/FRET/MOA assay, NRAS Q61K
Type: biochemical
RECORDED_CONDITIONS: NRAS Q61K; read-out: NRAS Q61K FRET data IC50
pIC50: −log10 of the molar value.
ENDPOINT_LABEL: pIC50

compound=CCn1c(-c2cccnc2[C@H](C)OC)c2c3cc(ccc31)-c1cc(cc(C(F)F)c1)C[C@H](NC(=O)[C@H](C1CCCC1)N1CC[C@]3(CCN(C(=O)[C@H]4CN4)C3)C1=O)C(=O)N1CCC[C@H](N1)C(=O)OCC(C)(C)C2 result="5.00 to 6.00"
compound=CCn1c(-c2cccnc2[C@H](C)OC)c2c3cc(ccc31)-c1cc(O)cc(c1)C[C@H](NC(=O)[C@H](C1CCCC1)N1CC[C@@]3(CCN(C(=O)[C@@H]4N[C@@H]4C4CC4)C3)C1=O)C(=O)N1CCC[C@H](N1)C(=O)OCC(C)(C)C2 result="5.00 to 6.00"
compound="CCn1c(-c2cccnc2[C@H](C)OC)c2c3cc(ccc31)-c1csc(n1)C[C@H](NC(=O)[C@H](C(C)C)N(C)C(=O)N1CCC[C@@H](N(C)C(=O)[C@@H]3CN3)C1)C(=O)N1CCC[C@H](N1)C(=O)OCC(C)(C)C2 (atropisomer, axis not shown)" result="7.00 to 8.00"
compound="CCn1c(-c2cccnc2[C@H](C)OC)c2c3cc(ccc31)-c1csc(n1)C[C@H](NC(=O)[C@H](C(C)C)N(C)C(=O)N1CCC[C@H](N(C)C(=O)[C@H]3CN3)C1)C(=O)N1CCC[C@H](N1)C(=O)OCC(C)(C)C2 (atropisomer, axis not shown)" result="6.00 to 7.00"
compound=CCn1c(-c2cccnc2[C@H](C)OC)c2c3cc(ccc31)-c1cc(CF)cc(c1)C[C@H](NC(=O)[C@H](C1CCCC1)N1CC[C@]3(CCN(C(=O)[C@@H]4N[C@@H]4C4CC4)C3)C1=O)C(=O)N1CCC[C@H](N1)C(=O)OCC(C)(C)C2 result="5.00 to 6.00"
compound=CCn1c(-c2cccnc2[C@H](C)OC)c2c3cc(ccc31)-c1csc(n1)C[C@H](NC(=O)[C@H](C(C)C)N(C)C(=O)N1C3CCC1CN(C(=O)[C@@H]1CN1)C3)C(=O)N1CCC[C@H](N1)C(=O)OCC(C)(C)C2 result="6.00 to 7.00"

---

MEASURED_ON: KRAS G13D (Homo sapiens, UniProt P01116+P62937, G13D)
Sequence (P01116 1-169 isoform P01116-2 G13D limits assumed, one chain of several): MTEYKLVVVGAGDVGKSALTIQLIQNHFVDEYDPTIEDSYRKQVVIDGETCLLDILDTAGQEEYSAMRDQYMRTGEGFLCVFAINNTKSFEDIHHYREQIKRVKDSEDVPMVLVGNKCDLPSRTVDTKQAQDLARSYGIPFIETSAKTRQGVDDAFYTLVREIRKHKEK
EXPERIMENT_NOTES: Ras-Raf disruption/FRET/MOA assay, KRAS G13D
Assay type: biochemical
RECORDED_CONDITIONS: disruption of BRAF RBD binding, with Cyclophilin A; read-out: KRAS G13D FRET IC50
pIC50: −log10 of the molar value.
ENDPOINT_LABEL: pIC50

molecule="CCn1c(-c2cnccc2COC)c2c3cc(ccc31)-c1cc(O)cc(c1)C[C@H](NC(=O)[C@H](C(C)C)N(C)C(=O)CN(C)C(=O)C1CN1C(C)=O)C(=O)N1CCC[C@H](N1)C(=O)OCC(C)(C)C2 (stereo partly shown)" measured_on="KRAS G13D (Homo sapiens, UniProt P01116+P62937, G13D)" result="6.00 to 7.00"
molecule=CCn1c(-c2cccnc2[C@H](C)OC)c2c3cc(ccc31)-c1cc(O)cc(c1)C[C@H](NC(=O)[C@H](C(C)C)N1CO[C@]3(CCN(C(=O)[C@H]4CN4)C3)C1=O)C(=O)N1CCC[C@H](N1)C(=O)OCC(C)(C)C2 measured_on="KRAS G13D (Homo sapiens, UniProt P01116+P62937, G13D)" result="7.00 to 8.00"
molecule=CCn1c(-c2cccnc2[C@H](C)OC)c2c3cc(ccc31)-c1cc(CF)cc(c1)C[C@H](NC(=O)[C@H](C1CCCC1)N1CC[C@]3(CCN(C(=O)[C@@H]4N[C@@H]4C4CC4)C3)C1=O)C(=O)N1CCC[C@H](N1)C(=O)OCC(C)(C)C2 measured_on="KRAS G13D (Homo sapiens, UniProt P01116+P62937, G13D)" result="5.00 to 6.00"
molecule="CCn1c(-c2cnccc2COC)c2c3cc(ccc31)-c1cc(O)cc(c1)C[C@H](NC(=O)[C@H](C(C)C)N(C)C(=O)CN(C)C(=O)[C@@H]1[C@H](C)N1[S@@+]([O-])C(C)(C)C)C(=O)N1CCC[C@H](N1)C(=O)OCC(C)(C)C2 (stereo partly shown)" measured_on="KRAS G13D (Homo sapiens, UniProt P01116+P62937, G13D)" result="6.00 to 7.00"
